Test system: Trypanosoma brucei
Assay: trypanosomicidal test in infected mice
Type: in vivo, Trypanosoma brucei (in mice)
Conditions: dose 200 mg./kg. p.o., i.p.
Protocol: Trypanosomicidal activity of the compounds of the invention was determined in a test procedure in which albino female mice (Taconic Farms) weighing 20± 2 g. were intraperitoneally injected 3 days prior to initial medication with 0.2 ml. of an inoculum containing 500 Trypanosoma brucei organisms in 0.85% sterile saline. Blood for infecting purposes was obtained via cardiac puncture of a donor mouse previously determined to have a high parasitemia. […]
measured_endpoint: No. Cleared/No. Tested, Tryp.

given_smiles: Cc1ccc2c(c1)c(=O)n(C)c1c(C(=O)O)cnn21
result: 4/5
//
given_smiles: Cn1c(=O)c2cc(Cl)ccc2n2ncc(C(=O)O)c12
result: 2/4
//
given_smiles: Cn1c(=O)c2ccc(Cl)cc2n2ncc(C(=O)O)c12
result: 5/5
//
given_smiles: CCOC(=O)c1cnn2c3ccccc3c(=O)n(C)c12
result: 2/5
//
given_smiles: Cn1c(=O)c2cc(F)ccc2n2ncc(C(=O)O)c12
result: 3/5

* * *

system: passive cutaneous anaphylaxis; assay: passive cutaneous anaphylaxis test in rats (anti-allergy); format: in vivo; conditions: Rattus norvegicus, po; rats, standard dose of 100 mg./kg. (p.o.)
Below, each entry is listed alongside its reported inhibition in vivo at 100 mg/kg.
measured_endpoint: inhibition in vivo at 100 mg/kg (%)

compound: Cc1ccc2c(c1)c(=O)n(C)c1c(C(=O)O)cnn21 [Example 7H]
numeric_result: 73
--
compound: CCOC(=O)c1cnn2c3ccc(C)cc3c(=O)n(C)c12 [Example 2F]
numeric_result: 6
--
compound: CCOC(=O)c1cnn2c3ccc(Cl)cc3c(=O)n(C)c12 [Example 2H]
numeric_result: 32
--
compound: CCOC(=O)c1cnn2c1[nH]c(=O)c1cc(Cl)ccc12 [Example 1C]
numeric_result: 48
--
compound: CCn1c(=O)c2ccccc2n2ncc(C(=O)O)c12 [Example 7A]
numeric_result: 81
--
compound: Cn1c(=O)c2cc(Br)ccc2n2ncc(C(=O)O)c12 [Example 7R]
numeric_result: 63
--
compound: C=CCn1c(=O)c2ccccc2n2ncc(C(=O)O)c12 [Example 7B]
numeric_result: 40
--
compound: O=C(O)c1cnn2c1[nH]c(=O)c1cc(Cl)ccc12 [Example 7J]
numeric_result: 92
--
compound: Cn1c(=O)c2ccccc2n2ncc(C(=O)O)c12 [Example 7]
numeric_result: 68
--
compound: Cc1ccc2c(c1)c(=O)[nH]c1c(C(=O)O)cnn12 [Example 7F]
numeric_result: 65
--
compound: O=C(O)c1cnn2c1[nH]c(=O)c1ccc(Cl)cc12 [Example 7L]
numeric_result: 74
--
compound: O=C(O)c1cnn2c1[nH]c(=O)c1ccccc12 [Ref., reference compound]
numeric_result: 62
--
compound: Cn1c(=O)c2ccc(Cl)cc2n2ncc(C(=O)O)c12 [Example 7M]
numeric_result: 56
--
compound: CCOC(=O)c1cnn2c3cc(C)ccc3c(=O)n(C)c12 [Example 2G]
numeric_result: 46
--
compound: CCOC(=O)c1cnn2c1[nH]c(=O)c1cc(C)ccc12 [Example 1A]
numeric_result: 63
